# studySystem: Estrogen receptor (Homo sapiens) (UniProt P03372)
# Sequence (P03372 whole entry, looked up): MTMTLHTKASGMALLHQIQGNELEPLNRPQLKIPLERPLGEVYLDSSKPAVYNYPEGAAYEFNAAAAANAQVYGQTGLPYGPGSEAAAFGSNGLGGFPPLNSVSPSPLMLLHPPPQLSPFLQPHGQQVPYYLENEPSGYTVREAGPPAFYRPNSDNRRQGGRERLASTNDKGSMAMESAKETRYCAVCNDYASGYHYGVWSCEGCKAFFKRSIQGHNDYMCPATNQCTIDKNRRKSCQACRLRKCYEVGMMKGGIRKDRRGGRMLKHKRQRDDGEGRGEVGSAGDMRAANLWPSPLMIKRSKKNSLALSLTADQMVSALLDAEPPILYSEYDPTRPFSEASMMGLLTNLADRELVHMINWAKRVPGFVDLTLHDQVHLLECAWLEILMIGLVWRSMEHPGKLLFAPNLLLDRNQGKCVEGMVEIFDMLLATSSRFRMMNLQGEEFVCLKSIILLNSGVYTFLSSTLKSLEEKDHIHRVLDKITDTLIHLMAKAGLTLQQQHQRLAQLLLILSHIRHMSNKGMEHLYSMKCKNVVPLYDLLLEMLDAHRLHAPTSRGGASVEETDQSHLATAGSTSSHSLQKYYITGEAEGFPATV
# protocolDetails: qHTS assay to identify small molecule agonists of the estrogen receptor alpha (ER-alpha) signaling pathway (AID 743075);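 also: HEK293 GripTite cells with ER-alpha and UAS-driven beta-lactamase reporter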; also: potency is read from the fitted curve at half-maximal effect
# testSettings: HEK293 ER-alpha-UAS-bla, beta-lactamase FRET ratio, 18 h; series mostly up to 70.1 µM
Calls of active or inactive are those of the source. Calls follow the shape of the full dose curve.

- smilesCode: "CCN(CC)CCOC(=O)c1cccnc1"
  Potency: "inactive"
- smilesCode: "COC(=O)[C@H]1[C@H]2C[C@@H]3c4[nH]c5cc(OC)ccc5c4CCN3C[C@H]2C[C@@H](OC(=O)/C=C/c2cc(OC)c(OC)c(OC)c2)[C@@H]1OC"
  Potency: "inactive"
- smilesCode: "C[C@]12CC[C@@H]3c4ccc(O)cc4CC[C@H]3[C@@H]1CC[C@@H]2OP(=O)(O)O"
  Potency: "1.3 nM [inconclusive] (active)"
- smilesCode: "Cc1cc(-c2ccc(N=Nc3c(S(=O)(=O)O)cc4cc(S(=O)(=O)O)cc(N)c4c3O)c(C)c2)ccc1N=Nc1c(S(=O)(=O)O)cc2cc(S(=O)(=O)O)cc(N)c2c1O"
  Potency: "inactive"

====

# protocolDetails: qHTS assay for small molecules that induce genotoxicity in human embryonic kidney cells expressing luciferase-tagged ATAD5 (AID 651632); also: nearly all actives have a fitted effect of over 15% in size
# testSettings: HEK293T ATAD5-luciferase induction, 16 h; series mostly up to 83.3 µM
Results filed as inconclusive are left out. The source made the active and inactive calls. Calls come from the whole dose curve; as a rule, active = well fitted activation curve with a large enough effect in the repeat runs; inconclusive = weak or mixed curves; inactive = no such curve, though single readings can be large or run the other way.
Outcome codes: true (1) = active, false (0) = inactive

- compound: "O=C(O)c1cc(N=Nc2ccc(O)c(C(=O)O)c2)ccc1O"
  qualitativeLabel: "false (0)"
- compound: "CCCCCCOc1ccc(C(=N)N(CCCC)CCCC)c2ccccc12"
  qualitativeLabel: "false (0)"
- compound: "CC(C(=O)O)c1ccc(N2Cc3ccccc3C2=O)cc1 (stereo unspecified)"
  qualitativeLabel: "true (1)"
- compound: "CC(CN(C)C)CN1c2ccccc2S(=O)(=O)c2ccccc21 (stereo unspecified)"
  qualitativeLabel: "false (0)"
- compound: "CC1(O)CCC(C(C)(C)O)CC1 (stereo unspecified)"
  qualitativeLabel: "false (0)"
- compound: "C[C@H](N)C(=O)N[C@@H](C)P(=O)(O)O"
  qualitativeLabel: "false (0)"

====

# protocolDetails: qHTS assay to identify small molecule antagonists of the androgen receptor (AR) signaling pathway using the MDA cell line - cell viability counter screen (AID 743041; also: nearly all actives have a fitted effect of over 45% in size)
# testSettings: MDA-kb2 viability, CellTiter-Fluor, 16 h, cells co-treated with R1881 androgen agonist; series mostly up to 70.3 µM
Records with an inconclusive call do not appear. The source made the active and inactive calls. Calls come from the whole dose curve; as a rule, active = well fitted cell-killing curve with a large enough effect in the repeat runs; inconclusive = weak or mixed curves, or effect the other way; inactive = flat fitted curve, though single readings scatter.

- compound: "CN1CCN(C2=Nc3ccccc3Cc3ccccc32)CC1"
  outcome: "inactive"
- compound: "COC(=O)C1=C(C#N)NC(C)=C(C(=O)OC(C)C)C1c1cccc([N+](=O)[O-])c1 (configuration not stated)"
  outcome: "inactive"
- compound: "CCCCC(C)(O)C/C=C/[C@H]1[C@H](O)CC(=O)[C@@H]1CCCCCCC(=O)OC (some centres not stated)"
  outcome: "inactive"
- compound: "CC1=C(/C=C/C(C)=C/C=C/C(C)=C/C=C/C=C(C)/C=C/C=C(C)/C=C/C2=C(C)C(=O)CCC2(C)C)C(C)(C)CCC1=O"
  outcome: "inactive"
- compound: "C=C1CC2C3CCC4=CC(=O)C=C[C@]4(C)[C@@]3(F)[C@@H](O)C[C@]2(C)[C@@]1(O)C(=O)COC(C)=O (some centres not stated)"
  outcome: "inactive"
- compound: "CC[C@H](C)[C@@H]1NC(=O)[C@H](Cc2ccc(O)cc2)NC(=O)[C@@H](N)CSSC[C@@H](C(=O)N2CCC[C@H]2C(=O)N[C@@H](CC(C)C)C(=O)NCC(N)=O)NC(=O)[C@H](CC(N)=O)NC(=O)[C@H](CCC(N)=O)NC1=O"
  outcome: "inactive"
- compound: "CC1(C)S[C@@H]2[C@H](NC(=O)[C@H](N)c3ccccc3)C(=O)N2[C@H]1C(=O)OCOC(=O)[C@@H]1N2C(=O)C[C@H]2S(=O)(=O)C1(C)C"
  outcome: "inactive"
